# TEST_TARGET: UniProt P34913
# Sequence (P34913 whole entry): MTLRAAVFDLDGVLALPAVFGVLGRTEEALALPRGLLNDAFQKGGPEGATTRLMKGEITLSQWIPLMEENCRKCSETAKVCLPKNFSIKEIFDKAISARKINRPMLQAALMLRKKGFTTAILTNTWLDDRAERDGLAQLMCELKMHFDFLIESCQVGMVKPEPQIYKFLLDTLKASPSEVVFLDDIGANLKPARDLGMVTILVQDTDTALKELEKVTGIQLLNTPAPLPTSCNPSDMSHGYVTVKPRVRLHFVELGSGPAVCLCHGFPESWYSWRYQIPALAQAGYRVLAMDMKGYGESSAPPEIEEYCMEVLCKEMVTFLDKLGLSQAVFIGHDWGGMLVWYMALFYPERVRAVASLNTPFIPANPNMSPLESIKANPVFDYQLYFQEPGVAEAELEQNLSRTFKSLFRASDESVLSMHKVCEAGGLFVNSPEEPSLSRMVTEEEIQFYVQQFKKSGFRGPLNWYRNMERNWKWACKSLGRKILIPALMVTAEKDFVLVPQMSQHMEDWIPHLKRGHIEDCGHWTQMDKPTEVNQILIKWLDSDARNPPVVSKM
# MEASUREMENT_PROTOCOL: sEH inhibition, fluorescent-based assay (CMNPC substrate)
# Format: biochemical
# REPORTED_CONDITIONS: value given in the text
METRIC: pIC50
Entry type: numeric. Quantity: pIC50, the -log10 of concentration in molar units.

Problem: For the compound Cc1ccc(OC(=O)NC23CC4CC(C)(CC(C2)c2ccccc24)C3)cc1 , report pIC50.
Result: 4.90

* * *

# MEASUREMENT_PROTOCOL: Microsomal stability
# REPORTED_CONDITIONS: after 60 min incubation, NADP, 37 °C
# Procedure: The human, rat, and mice recombinant microsomes employed were purchased from Tebu–Xenotech. […] The plate was centrifuged ([…], 30 min) and supernatants were taken and analyzed by an ultraperformance liquid chromatograph–tandem mass spectrometer (Xevo-TQD, Waters) by employing a BEH C18 column and an isocratic gradient of 0.1% formic acid in water: 0.1% formic acid acetonitrile (60:40). […]
Below, each entry is listed alongside its reported microsomal stability, percentage of remaining compound (rat).
Record the value in %, omitting the unit from your answer.

Below, each entry is followed by its recorded microsomal stability, percentage of remaining compound (rat) result.
| COMPOUND | OBSERVED_RESULT |
| --- | --- |
| O=C(NC12CC3CC(F)(CC(C1)c1ccccc13)C2)N[C@H]1CC[C@H](Oc2ccc(C(=O)O)cc2)CC1 [Compound 23] | 60 |
| O=C(NC12CC3CC(Cl)(CC(C1)c1ccccc13)C2)N[C@H]1CC[C@H](Oc2ccc(C(=O)O)cc2)CC1 [Compound 22] | 52 |
| CC12CC3CC(NC(=O)Nc4ccc(F)c(F)c4F)(CC(C1)c1ccccc13)O2 [Compound 14] | 33 |

Field: next compound
Problem: For the compound CC12CC3CC(NC(=O)N[C@H]4CC[C@H](Oc5ccc(C(=O)O)cc5)CC4)(CC(C1)c1ccccc13)C2 [Compound 20] , report microsomal stability, percentage of remaining compound (rat).
Result: 2
